target: BRD4(BD1) (Homo sapiens)
Construct: His; made in house
experimental-details: BRD4 AlphaLisa binding assay (Alphascreen)
assay-context: Table 14; BRD4 AlphaLisa Binding Assay; read-out: Alpha screen
measured-metric: IC50

Read the entry `Cc1noc2c1-c1ccc(=O)[nH]c1C(c1ccc(Cl)cc1)=NC2` and write its reported IC50.
500 to 1000 nM

Read the entry `Cc1noc2c1-c1nc(Cl)ccc1C(c1ccc(Cl)cc1)=NC2` and write its reported IC50.
> 1000 nM

Read the entry `Cc1noc2c1-c1ccc(OC(F)(F)F)cc1C(c1ccc(Cl)cc1)=N[C@H]2CC(N)=O` and write its reported IC50.
< 500 nM

Read the entry Cc1noc2c1-c1sc(C)c(C)c1C(c1ccc(C(C)(C)O)cc1)=NC2CC(N)=O (centres unmarked) and write its reported IC50.
< 500 nM

Read the entry `Cc1noc2c1-c1ccccc1C(c1ccc(Cl)cc1)=N[C@H]2CC(=O)NCCO` and write its reported IC50.
< 500 nM

Read the entry `Cc1noc2c1-c1sc(C)c(C)c1C(OC(C)C)=N[C@H]2CC(N)=O` and write its reported IC50.
500 to 1000 nM

Read the entry `Cc1noc2c1-c1ccc(N3CCCC3)nc1C(c1ccc(Cl)cc1)=NC2` and write its reported IC50.
< 500 nM

Read the entry `Cc1noc2c1-c1ccnc(Oc3ccccc3)c1C(c1ccc(Cl)cc1)=NC2` and write its reported IC50.
> 1000 nM
